Measured values drawn from PubChem BioAssay AID1345083 for this set.

# PROTOCOL_TEXT: Cytotoxic Profiling in HEK 293 Cell Line of Diverse Libraries Using Quantitative High-Throughput Screening; also: nearly all actives have a fitted effect of over 60% in size
# CONDITION: HEK 293 viability, ATP luminescence (CellTiter-Glo), 48-72 h; series mostly up to 115 µM
In all, about 94,000 compounds went through this assay and about 6,200 (6.6%) were called active. Another 31% or so got no clear call; they are omitted. Calls follow the shape of the dose curve; as a rule, active = well fitted inhibition curve with a large enough effect; inconclusive = small, poorly fitted or top-dose-only effect; inactive = flat fitted curve, though single readings scatter. Only a selection was taken, and actives are over-represented in it overall.
Outcomes: class 1 (active), class 0 (inactive)

| COMPOUND | CLASS_NAME |
| --- | --- |
| COCC1CCCCN1c1ccc(C(=O)NCCCc2ccccn2)cn1 (stereo unspecified) | class 0 |
| CS(=O)(=O)N1CCC(C2CCN(C(=O)Cc3cccs3)C2)CC1 (stereo unspecified) | class 0 |
| Cc1ncc(C(=O)N2CCCC(c3cc(N4CCOCC4)nc(C)n3)C2)cn1 (stereo unspecified) | class 0 |
| O=C(NCc1ccccn1)c1ccc2nccn2c1 | class 0 |
| O=C(NC1CCN(Cc2ccc(F)c(F)c2)CC1)c1ccc2nccn2c1 | class 1 |
| CC(C)c1nnc(C2CN(C(=O)c3ccc4ccccc4n3)CC23CCOCC3)o1 (stereo unspecified) | class 0 |
| Cc1ccc(C)c(CNC(=O)c2ccc3c(c2)N(S(=O)(=O)c2ccccc2)CC3)c1 | class 0 |
| COc1ccc(-c2nc(C(C)C)nc3c2CCN(C(=O)Cc2ccccn2)CC3)cc1 | class 0 |
| CNC(=O)[C@@H]1CN(C(=O)c2cnc(C)cn2)C[C@H]1COC | class 0 |
| Cc1cc2occ(CC(=O)N3CC[C@](C)(O)[C@@H](O)C3)c2cc1Cl | class 0 |
| O=C(C1C2C(=O)N(C3CCCCCC3)C[C@@]23C=C[C@@H]1O3)N1CCS(=O)(=O)CC1 (stereo partly specified) | class 0 |
| O=C(O)C[C@@H]1CCN(C(=O)c2ccc(C(F)(F)F)cc2)C[C@@H]1CCN1CCN(c2ccc(F)cc2)CC1 | class 0 |
| O=C(NCCc1nc(-c2ccccc2)cs1)C1NCCc2[nH]cnc21 (stereo unspecified) | class 0 |
| COc1ccc(S(=O)(=O)N2CCc3c(C(=O)NCc4ccncc4)cccc32)cc1 | class 1 |
| CCCNC(=O)N(C1CCOCC1)C1CCN(C(=O)c2ccc(F)c(F)c2)CC1 | class 0 |
| COc1ccc(S(=O)(=O)N2[C@@H]3CC[C@H]2CC(NC(=O)c2ccncc2)C3)cc1 (stereo partly specified) | class 0 |
| CC(C)C1=NOC2(CCN(C(=O)c3ccccc3F)C2)C1 (stereo unspecified) | class 0 |
| CNC(=O)c1cc(C2CC2)nc2c1c(C1CCN(C(=O)C(C)C)C1)nn2C (stereo unspecified) | class 0 |
| O=C(c1ccc2nccn2c1)N1CCOCC1 | class 0 |
| COCCNC(=O)[C@H]1C[C@H](Oc2cccnc2)CN1C(=O)NC1CCCCC1 | class 0 |
| NS(=O)(=O)c1ccc(F)c(C(=O)N[C@@H]2c3ccccc3C[C@@H]2O)c1 | class 0 |

---

# PROTOCOL_TEXT: Cytotoxic Profiling in HEK 293 Cell Line of Diverse Libraries Using Quantitative High-Throughput Screening; also: nearly all actives have a fitted effect of over 60% in size
# CONDITION: HEK 293 viability, ATP luminescence (CellTiter-Glo), 48-72 h; series mostly up to 115 µM
Out of some 94,000 compounds screened, about 6,200 (6.6%) were called active. Roughly 31% stayed inconclusive and do not appear here. Calls follow the shape of the dose curve; as a rule, active = well fitted inhibition curve with a large enough effect; inconclusive = small, poorly fitted or top-dose-only effect; inactive = flat fitted curve, though single readings scatter. This is one part of a sample in which actives are shown more often than they occur.
Outcomes: 1 = active, 0 = inactive

| COMPOUND | CLASS_NAME |
| --- | --- |
| COCc1nc2nccc(-c3ccccc3)n2n1 | 0 |
| COc1ccc(NC(=O)[C@@H]2C[C@@H](O)CN2C2CCN(C(=O)c3cccc(OC)c3)CC2)cc1 | 0 |
| COc1ccc(C2Cn3nnc(-c4noc(-c5ccc(OC)cc5C)n4)c3CO2)cc1 (stereo not given) | 0 |
| Cc1nn2c(c1-c1ccccc1C(C)C)N(C(=O)c1cnccn1)CCC2 | 0 |
| CCC(C)NC(=O)C1COC2(CCN(C(=O)CC(C)(C)C)CC2)N1C(=O)c1cccc(OC)c1 (stereo not given) | 0 |
| N#Cc1ccc(CN2CCCC3(COc4ccccc4[S+](=O)([O-])N3)C2)cc1 (stereo not given) | 0 |
| Cc1nn2c(c1-c1ccnn1C(C)C)N(CC1CCOCC1)CCC2 | 1 |
| Cc1nn2c(c1-c1ccccc1-c1ccccc1)N(C(=O)CN1CCOCC1)CCC2 | 0 |
| Cc1nn2c(c1-c1ccccc1-c1ccccc1)N(CC1CC1)CCC2 | 1 |
| Fc1ccc(Cc2nc3nccc(-c4cc5ccccc5o4)n3n2)cc1 | 0 |

---

# PROTOCOL_TEXT: Cytotoxic Profiling in HEK 293 Cell Line of Diverse Libraries Using Quantitative High-Throughput Screening; also: nearly all actives have a fitted effect of over 60% in size; also: potency is read from the fitted curve at half-maximal effect
# CONDITION: HEK 293 viability, ATP luminescence (CellTiter-Glo), 48-72 h; series mostly up to 115 µM
Out of some 94,000 compounds screened, about 6,200 (6.6%) were called active. About 31% were inconclusive and are not listed. The entries come from a sample that favours actives as a whole.

| COMPOUND | Potency |
| --- | --- |
| CCOc1ccccc1C(=O)N1CCC(Oc2ncccc2C(=O)N(C)C)C1 (stereo not given) | inactive |
| COc1ccc2[nH]c(C(=O)N[C@@H]3CN(S(C)(=O)=O)C[C@H]3CN(C)C)cc2c1 | inactive |
| COc1cccc(-c2cccc(C(=O)N3CCCC3C(=O)NCC3CC3)c2)c1 (stereo not given) | inactive |
| COc1ccccc1-n1c(=O)c(C(=O)N2CCN([S+](=O)([O-])c3cccs3)CC2)nc2cccnc21 | inactive |
| COCc1cc(=O)n(CC(=O)Nc2ccc(C)cc2)c(N2CCOCC2)n1 | inactive |
| Cc1ccc(-c2cccc(CN3CCCC3C(=O)NCC(F)(F)F)c2)cc1Cl (stereo not given) | 31.6 µM (active) |
| CCN1C(=O)CCN(Cc2cnn(CC)c2C)CC12CCOCC2 | inactive |
| O=C(Cc1cccc(F)c1)Nc1cnc(-c2cccnc2)nc1 | inactive |
| CN(CCc1ccccn1)[C@@H]1[C@H](O)[C@H](CO)O[C@@H]1CNC1CCOCC1 | inactive |
| CNC(=O)C1CCCCN1Cc1ccc(-c2cccs2)cc1 (stereo not given) | 28.2 µM (active) |

---

# PROTOCOL_TEXT: Cytotoxic Profiling in HEK 293 Cell Line of Diverse Libraries Using Quantitative High-Throughput Screening; also: nearly all actives have a fitted effect of over 60% in size
# CONDITION: HEK 293 viability, ATP luminescence (CellTiter-Glo), 48-72 h; series mostly up to 115 µM
Screen size: about 94,000 compounds; about 6,200 (6.6%) were called active. Inconclusive results (about 31%) are left out. The call rests on the fitted dose curve; in most records, active means well fitted inhibition curve with a large enough effect; inconclusive means small, poorly fitted or top-dose-only effect; inactive means flat fitted curve, though single readings scatter. This is one part of a sample in which actives are shown more often than they occur.
Outcomes: true (1) = active, false (0) = inactive

| GIVEN_SMILES | CLASS_NAME |
| --- | --- |
| CCN(C(=O)CCC(=O)N1CCc2c(c(-c3nncn3CC)nn2C)C1)c1ccccc1 | false (0) |
| CC(=O)Nc1ccc(-c2c(-c3ccc4c(c3)OCO4)nn(-c3cc(C)ccc3C)c2OC(C)=O)cc1 | true (1) |
| CC(=O)c1c(C)nn(CC(=O)N2CCC(c3cc(C(C)C)n[nH]3)CC2)c1C | false (0) |
| c1cncc(CN2CC(Oc3ccc4c(c3)OCO4)C2)c1 | false (0) |
| COC(=O)COc1cccn2c(=O)c(-c3cc(C)n(-c4ccc(C)cc4C)n3)c(C)nc12 | false (0) |
| COc1ccccc1Nc1cnc2ccc(-c3ccc(OC)c(OC)c3)nn12 | true (1) |
| Cc1cccc(NC(=O)N2CC(Oc3ccc(-c4nc(C)no4)cc3)C2)c1 | false (0) |
| COc1ccc(C(=O)NCc2nnc3ccc(-c4ccccc4)nn23)c(OC)n1 | false (0) |
| CCCc1nn(-c2cccc(F)c2)c(OC(C)=O)c1-c1ccc(NC(C)=O)cc1 | false (0) |
| COc1ccccc1N1CCCc2ncc(C(=O)N3CCCC[C@@H]3c3ccccc3)cc21 | true (1) |

---

# PROTOCOL_TEXT: Cytotoxic Profiling in HEK 293 Cell Line of Diverse Libraries Using Quantitative High-Throughput Screening; also: nearly all actives have a fitted effect of over 60% in size; also: potency is read from the fitted curve at half-maximal effect
# CONDITION: HEK 293 viability, ATP luminescence (CellTiter-Glo), 48-72 h; series mostly up to 115 µM
Hit rate of the full screen: of about 94,000 compounds, about 6,200 (6.6%) were called active. Inconclusive results (about 31%) are left out. The list comes from a sample in which actives are over-represented; it also holds close analogues and randomly drawn compounds.

| COMPOUND | Potency |
| --- | --- |
| CCOc1cc(C)c(CN2C[C@@H](CN(C)C)C[C@H](CO)C2)cc1C(C)C | 35.5 µM (active) |
| Cc1noc(C)c1[S+](=O)([O-])NC1CCN(Cc2cccc(-c3ccc(F)c(F)c3)c2)CC1 | 25.1 µM (active) |
| CC(C)Cc1ccc(CN2CCC3(CC2)Cc2ccccc2CNC3=O)cc1 | 22.4 µM (active) |
| O=C1NC2(Cc3ccccc31)CN(Cc1cscn1)C2 | inactive |
| O=C(NCc1ccccc1)c1ccc2nc(-c3ccnc(Cl)c3)oc2c1 | inactive |
| CNC(=O)c1cc(C)nc2onc(C3CCCN3C(=O)Cc3ccc(F)cc3)c12 (configuration not stated) | inactive |
| COc1cccc(C(=O)N2CCC(Cc3nc(-c4cnccn4)no3)CC2)c1 | inactive |
| COc1ccc(CNC(=O)NCC(=O)N2CCCCCCNC(=O)CC2c2ccccc2)cc1 (configuration not stated) | inactive |
| COc1ccccc1N1CCN([C@@H]2[C@H](O)[C@H](CO)O[C@@H]2CNC(=O)c2ccc(F)c(Cl)c2)CC1 | inactive |
| O=C(C1CCN([S+](=O)([O-])c2cccc(C(F)(F)F)c2)CC1)N1CCC(N2CCCC2=O)CC1 | inactive |
| Fc1ccc(CN2CC(Oc3ccc(F)cc3F)C2)cc1 | inactive |
| CC(C)Nc1ncc(C(=O)NC2CCCN(CCc3ccccc3)C2)cn1 (configuration not stated) | inactive |
| COc1ccccc1-c1ccc(C(=O)O)cc1 | inactive |
| COc1ccccc1-c1nnc2ccc(C(=O)NC3CC3)cn12 | inactive |
| O=C1CCCCCN1C1CCN(Cc2ccc(C(F)(F)F)cc2)CC1 | 31.6 µM (active) |
| Cc1noc(C)c1[S+](=O)([O-])NC1CCN(Cc2ccc(-c3ccsc3)cc2)C1 (configuration not stated) | 39.8 µM (active) |
| COC(=O)c1nc(NC(=O)Cn2nc3c(cc2=O)CCCCC3)sc1C | inactive |
| CCOc1ccc(CC(=O)N2CCC(Cc3nc(-c4cnccn4)no3)CC2)cc1 | inactive |
| Cc1cc(C)cc(-c2ccc(CN3CCCC(NC(=O)c4ccccc4)C3)cc2)c1 (configuration not stated) | 28.2 µM (active) |
| COCC(=O)N1CCCN(Cc2ccncc2)C(c2ccccc2)CC(=O)NCC1 (configuration not stated) | inactive |
| CC(C)CC(=O)N1CCN(c2nnc3ccccn23)CC1 | inactive |
| COc1ccc(CCC(=O)N2CCCC(n3c(C)cnc3C3CCOCC3)C2)cc1 (configuration not stated) | inactive |
| COc1ccc(CNC[C@H]2O[C@H](Cc3cc(-c4ccc(OC)cc4)on3)CC[C@@H]2O)cc1 | 35.5 µM (active) |
| Cn1cc(C#N)cc1-c1nc(COc2ccccc2)nn1CC(F)(F)F | inactive |
| O=C(NC1CCCN(c2ccc3nnc(C4CC4)n3n2)C1)c1ccc(Cl)nc1 (configuration not stated) | inactive |
| COc1ccccc1-c1ccc(CN2CCC(NC(=O)c3ccc(Cl)nc3)C2)cc1 (configuration not stated) | 50.1 µM (active) |
| CC(=O)N1CCC(Oc2ccc(Cl)cc2C(=O)N2CCN(CC3CC3)CC2)CC1 | inactive |
| COc1cc(C)c(CN2CCN3C(=O)CNC(=O)C3C2)cc1C(C)C (configuration not stated) | inactive |
| Cc1ccc(-c2cccc(CN3CCCC(NC(=O)c4ccc(Cl)cc4)C3)c2)cc1Cl (configuration not stated) | inactive |
| C[C@@H](NC(=O)C1=C[C@@H](NC(=O)CC2(CC(=O)O)CCCC2)[C@@H](O)[C@H](O)C1)C(N)=O | inactive |
| Cc1nnc2n1C(C)CN(C(=O)CCCc1nc(-c3ccncc3)no1)C2 (configuration not stated) | inactive |
| O=C1N2CCCC2CN1C1CCN(Cc2ccsc2)CC1 (configuration not stated) | inactive |
| O=C1CCN(Cc2ccc(C(F)(F)F)cc2)CCCOCCN1 | inactive |
| Cc1ccc(C(=O)N2CCC(c3nn(-c4ccccn4)c(=O)[nH]3)CC2)cc1 | inactive |
| COc1ccc(-c2noc(CC3CCN(C(=O)CC4CCCCC4)CC3)n2)cc1 | 44.7 µM (active) |
| COc1ccc(CN2CCC3(CC2)Cc2ccccc2CNC3=O)cn1 | inactive |
| Cc1noc(C)c1[S+](=O)([O-])N1CCn2c(nnc2-c2ccccc2)C1 | inactive |
| O=C(NCCCN1CCCCC1)C1CCN(C(=O)N2CC3CC(C2)[C@H]2CCCC(=O)N2C3)CC1 (some centres not stated) | inactive |
| CN(C)c1ccc2ncc(Nc3ccccc3F)n2n1 | 112 µM (active) |
| Cc1noc(C)c1[S+](=O)([O-])N1CC(Oc2ccc(F)c(F)c2)C1 | inactive |
| O=C1NCc2ccccc2CC12CCN(Cc1ccc(O)cc1)CC2 | inactive |
| O=C(NCCc1ccccc1)c1ccc2oc(-c3cccnc3)nc2c1 | inactive |
